- PROTOCOL_DESCRIPTION: Permeability of the compound at 50 uM after 18 hrs by PAMPA
- Type: ADME
- CONDITION_DESCRIPTION: read-out: permeability
Consider the following compounds and their measured Papp at 18 h, 50 µM readings.
Provide the reading as a plain figure in ×10⁻⁶ cm/s.

I'd like to know its Papp at 18 h, 50 µM. The compound in question is "CCc1ccc(-c2cc(NC3CCN(C(C)C)CC3)c3cc(OC)c(OCCCN4CCCC4)cc3n2)o1"
3.83

Same lookup for "COc1cc2c(NC3CCN(C)CC3)cc(C3=CCOCC3)nc2cc1OCCCN1CCCC1" , please.
0.37

Param item: "COc1cc2c(NC3CCN(C)CC3)cc(-c3ccnn3C)nc2cc1OCCCN1CCCC1"
0.09

What do you have for "COc1cc2c(NC3CCNCC3)cc(-c3ccc(C)o3)nc2cc1OCCCN1CCCC1" ?
0.2

Try the compound "COc1cc2c(NC3CCN(C)CC3)cc(-c3ccoc3)nc2cc1OCCCN1CCCC1"
0.22

Please examine the following record next.
Give the measured Papp at 18 h, 50 µM of "COc1cc2c(NC3CCN(C)CC3)cc(C3=CCCCC3)nc2cc1OCCCN1CCCC1" .
2.09

====

- Test system: THLE-2
- PROTOCOL_DESCRIPTION: Growth inhibition of human THLE2 cells after 72 hrs by MTS assay
- Assay type: cell-based
- CONDITION_DESCRIPTION: thle-2, 72 h
Parameter LC50: see the listing below.
Value expressed in µM; do not type the unit.

Field request: LC50 | item: "COc1cc2c(NC3CCN(C)CC3)cc(C3CCCCC3)nc2cc1OCCCN1CCCC1"
34.8

Ok, now "COc1cc2c(NC3CCN(C)CC3)cc(-c3ccoc3)nc2cc1OCCCN1CCCC1"
22.3

Consider next the compound "COc1cc2c(NC3CCNCC3)cc(-c3ccc(C)o3)nc2cc1OCCCN1CCCC1" in the same way.
8.85

Read the next record carefully.
# get_value(readout='LC50', item= "COc1cc2c(NC3CCN(C)CC3)cc(-c3ccccc3)nc2cc1OCCCN1CCCC1" )
5.62
